- TEST TARGET: Grb2 SH2 domain protein (Homo sapiens)
- Construct: made in house
- Sequence (P62993 60-152 limits assumed): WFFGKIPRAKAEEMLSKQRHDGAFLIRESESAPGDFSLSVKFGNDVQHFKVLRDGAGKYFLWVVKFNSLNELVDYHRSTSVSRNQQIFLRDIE
- TEST METHOD NOTES: Biosensor (Biacore S51 surface plasmon resonance) direct binding to chip-bound Grb2 SH2 domain protein
- CONDITION SET: binding affinity to Grb2 SH2 domain protein; complex binding kinetics, second of two Kd values; read-out: Kd (complex binding kinetics, second value)
ENDPOINT LABEL: Kd (µM)

>>> reported_measurement("NC(=O)CC1NC(=O)C2(CCCCC2)NC(=O)[C@@H](CC(=O)O)[C@@H](c2ccc(CP(=O)(O)O)cc2)/C=C/CCC2(CCCCC2)CNC1=O (stereo partly shown) [compound 24]")
21.3

Recorded values, source patent US20080139456A1.
